- METHOD_SUMMARY: Half life in human liver microsomes
- Format: ADME, Microsome
REPORTED_PROPERTY: half-life (min)
Write the answer as a number in min, unit excluded.

For orientation, consider the following solved cases.
{"columns": ["SMILES_RECORD", "half-life (min)"],
 "data": [
  ["CN1CCC(NC(=O)c2cnc(NCc3cc(Cl)ccc3Cl)nc2NC2CCCC2)CC1", 14],
  ["COc1ccccc1CNc1ncc(C(=O)NCCNC(C)=O)c(NC2CCCC2)n1", 5],
  ["O[C@@H]1COC[C@H]1Nc1nc(Nc2cc(Cl)cc(Cl)c2)ncc1-c1cccnc1", 120]
]}

Turning to the following molecule.
// query Recorded half-life for COc1ccccc1CNc1ncc(C(=O)NC2CCN(C)CC2)c(NC2CCCC2)n1 , please?
// result 34

* * *

- METHOD_SUMMARY: Permeability of the compound by PAMPA
- Assay type: ADME
- TEST_PARAMETERS: read-out: permeability
Reported values of Papp for individual entries
Give the value, in units of ×10⁻⁶ cm/s, as a plain number.

{"columns": ["COMPOUND", "ASSAY_RESULT"],
 "data": [
  ["O=C(NCCCN1CCCC1=O)c1cnc(NCc2cc(Cl)ccc2Cl)nc1NC1CCCC1", 0.1]
]}

// query Recorded Papp of CC[C@@H](CO)Nc1nc(Nc2cc(Cl)cc(Cl)c2)ncc1C(=O)NC1CCN(C)CC1 , please.
// result 2

// query What do we get for CN1CCC(NC(=O)c2cnc(NCc3cc(Cl)ccc3Cl)nc2NC2CCCC2)CC1 ?
// result 0.02

// query Next entry: COc1ccccc1CNc1ncc(C(=O)NCCCN2CCCC2=O)c(NC2CCCC2)n1
// result 1.5

// query Input COc1ccccc1CNc1ncc(C(=O)NC2CCN(C)CC2)c(NC2CCCC2)n1
// result 1.2

// query Same read-out for CN1CCC(NC(=O)c2cnc(NCc3cc(Cl)ccc3Cl)nc2NC2CCC(N(C)C)CC2)CC1 (centres undefined) ?
// result 2

// query // next record Cc1cc(-c2cnc(Nc3cc(Cl)cc(Cl)c3)nc2NC2CCC(N(C)C)CC2)on1 (centres undefined)
// result 0.03

// query Now consider O[C@@H]1COC[C@H]1Nc1nc(Nc2cc(Cl)cc(Cl)c2)ncc1Br .
// result 0.3

// query Subsequent entry: Cc1cc(-c2cnc(Nc3cc(Cl)cc(Cl)c3)nc2NC2CCNCC2)on1
// result 0.2

// query And what about the compound CN1CCC(NC(=O)c2cnc(Nc3cc(Cl)cc(Cl)c3)nc2N[C@H]2CCCCNC2=O)CC1 ?
// result 0.2

// query Queued: O[C@@H]1COC[C@H]1Nc1nc(Nc2cc(Cl)cc(Cl)c2)ncc1-c1cccnc1
// result 1

// query Follow-up entry: COc1ccccc1CNc1ncc(C(=O)NCCNC(C)=O)c(NC2CCCC2)n1
// result 1.9

// query Continue with COc1ccccc1CNc1ncc(C(=O)NCCCO)c(NC2CCCC2)n1
// result 0.9

// query Next entry: CN1CCC(NC(=O)c2cnc(Nc3cc(Cl)cc(Cl)c3)nc2N[C@@H]2COC[C@H]2O)CC1
// result 1.4

// query Quick one: COc1ccccc1CNc1ncc(C(=O)NCCc2nnn[nH]2)c(NC2CCCC2)n1
// result 21

// query And for CN1CCC(NC(=O)c2cnc(Nc3cc(Cl)cc(Cl)c3)nc2NC2CCC(N(C)C)CC2)CC1 (centres undefined) ?
// result 0.3

* * *

- METHOD_SUMMARY: Oral bioavailability in Sprague-Dawley rat at 5 mg/kg
- Type: ADME, organism-based
- TEST_PARAMETERS: in vivo
REPORTED_PROPERTY: bioavailability (%)
Answer format: numeric, % implied, no suffix.

Example cases with answers are listed next.
{"columns": ["SMILES_RECORD", "bioavailability (%)"],
 "data": [
  ["CN1CCC(NC(=O)c2cnc(NCc3cc(Cl)ccc3Cl)nc2NC2CCNCC2)CC1", 0],
  ["CN1CCC(NC(=O)c2cnc(NCc3cc(Cl)ccc3Cl)nc2NC2CCCC2)CC1", 32],
  ["COc1ccccc1CNc1ncc(C(=O)NC2CCN(C)CC2)c(NC2CCCC2)n1", 41]
]}

Let's switch to this molecule now.
// query May I ask what bioavailability has been recorded for CN1CCC(NC(=O)c2cnc(Nc3cc(Cl)cc(Cl)c3)nc2N[C@@H]2COC[C@H]2O)CC1 ?
// result 0

* * *

- TESTED_SYSTEM: CYP2D6 (Homo sapiens, UniProt P10635)
- Sequence (P10635 whole entry): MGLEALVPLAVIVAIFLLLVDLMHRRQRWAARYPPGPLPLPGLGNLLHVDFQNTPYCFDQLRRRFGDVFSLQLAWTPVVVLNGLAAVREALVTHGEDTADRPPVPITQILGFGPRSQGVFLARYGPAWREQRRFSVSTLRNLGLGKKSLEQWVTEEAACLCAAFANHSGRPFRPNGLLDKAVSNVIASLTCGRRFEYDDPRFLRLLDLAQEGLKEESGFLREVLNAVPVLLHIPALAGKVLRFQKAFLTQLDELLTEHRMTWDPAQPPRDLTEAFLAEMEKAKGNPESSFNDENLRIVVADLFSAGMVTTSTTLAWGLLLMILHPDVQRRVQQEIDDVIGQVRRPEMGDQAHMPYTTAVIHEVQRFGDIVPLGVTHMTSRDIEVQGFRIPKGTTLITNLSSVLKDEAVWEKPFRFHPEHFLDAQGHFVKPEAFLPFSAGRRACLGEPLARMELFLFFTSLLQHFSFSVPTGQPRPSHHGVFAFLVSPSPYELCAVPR
- METHOD_SUMMARY: Inhibition of CYP2D6 (unknown origin) at 3 uM
- Type: ADME
Quick reference: inhibition at 3 µM of the listed items.
State the result as a value with its unit after it.

{"columns": ["MOLECULE", "TESTED_SYSTEM", "ASSAY_RESULT"],
 "data": [
  ["Cc1cc(-c2cnc(Nc3cc(Cl)cc(Cl)c3)nc2NC2CCNCC2)on1", "CYP2D6 (Homo sapiens, UniProt P10635)", "81%"],
  ["O[C@@H]1COC[C@H]1Nc1nc(Nc2cc(Cl)cc(Cl)c2)ncc1Br", "CYP2D6 (Homo sapiens, UniProt P10635)", "1%"],
  ["O[C@@H]1COC[C@H]1Nc1nc(Nc2cc(Cl)cc(Cl)c2)ncc1-c1ccc(F)cc1", "CYP2D6 (Homo sapiens, UniProt P10635)", "24%"],
  ["Cc1cc(-c2cnc(Nc3cc(Cl)cc(Cl)c3)nc2NC2CCC(N(C)C)CC2)on1 (stereo not given)", "CYP2D6 (Homo sapiens, UniProt P10635)", "69%"]
]}

Let's switch to this molecule now.
// query # lookup: inhibition at 3 µM of O[C@@H]1COC[C@H]1Nc1nc(Nc2cc(Cl)cc(Cl)c2)ncc1-c1cccnc1
// result 88%

* * *

- METHOD_SUMMARY: Half life in rat liver microsomes
- Type: ADME, Microsome
Each item that follows carries a reported half-life.
Unit min implied. Number only.

{"columns": ["MOLECULE", "UNITS_OF_MEASURE", "half-life"],
 "data": [
  ["CN1CCC(NC(=O)c2cnc(Nc3cc(Cl)cc(Cl)c3)nc2NC2CCC(N(C)C)CC2)CC1 (stereo unspecified)", "min", 60],
  ["O=C(NCCCN1CCCC1=O)c1cnc(NCc2cc(Cl)ccc2Cl)nc1NC1CCCC1", "min", 4],
  ["O[C@@H]1COC[C@H]1Nc1nc(Nc2cc(Cl)cc(Cl)c2)ncc1Br", "min", 31]
]}

// query I have this molecule here, O[C@@H]1COC[C@H]1Nc1nc(Nc2cc(Cl)cc(Cl)c2)ncc1-c1cccnc1 , and I need its recorded half-life.
// result 31

// query Here is the next molecule: Cc1cc(-c2cnc(Nc3cc(Cl)cc(Cl)c3)nc2NC2CCC(N(C)C)CC2)on1 (stereo unspecified)
// result 6

* * *

- TESTED_SYSTEM: Casein kinase I isoform delta (Homo sapiens, UniProt P48730)
- Sequence (P48730 whole entry, canonical isoform): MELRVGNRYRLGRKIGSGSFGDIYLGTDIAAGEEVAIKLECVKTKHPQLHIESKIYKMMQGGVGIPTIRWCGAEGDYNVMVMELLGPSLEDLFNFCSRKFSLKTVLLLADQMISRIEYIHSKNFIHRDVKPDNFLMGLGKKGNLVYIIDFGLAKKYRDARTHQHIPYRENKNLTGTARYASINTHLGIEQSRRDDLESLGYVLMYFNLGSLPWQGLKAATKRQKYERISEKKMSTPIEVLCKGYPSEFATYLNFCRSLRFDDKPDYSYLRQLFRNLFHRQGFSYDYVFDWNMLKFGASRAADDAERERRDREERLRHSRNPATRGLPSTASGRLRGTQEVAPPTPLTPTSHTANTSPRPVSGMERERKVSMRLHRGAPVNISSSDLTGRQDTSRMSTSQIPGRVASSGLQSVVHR
- METHOD_SUMMARY: Inhibition of CK1-delta (unknown origin) in presence of ATP
REPORTED_PROPERTY: IC50 (nM)
Write the answer as a number in nM, unit excluded.

{"columns": ["COMPOUND", "UNITS_OF_MEASURE", "ASSAY_RESULT"],
 "data": [
  ["CN1CCC(NC(=O)c2cnc(Nc3cc(Cl)cc(Cl)c3)nc2N[C@@H]2COC[C@H]2O)CC1", "nM", 4500],
  ["CN1CCC(NC(=O)c2cnc(NCc3cc(Cl)ccc3Cl)nc2NC2CCCC2)CC1", "nM", 2390]
]}

API: the following record is the query input.
// query Item Cc1cc(-c2cnc(Nc3cc(Cl)cc(Cl)c3)nc2NC2CCC(N(C)C)CC2)on1 (stereo not drawn) with Casein kinase I isoform delta (Homo sapiens, UniProt P48730) - IC50?
// result 110

* * *

- TESTED_SYSTEM: Insulin receptor (Homo sapiens, UniProt P06213)
- Sequence (P06213 28-758 limits assumed): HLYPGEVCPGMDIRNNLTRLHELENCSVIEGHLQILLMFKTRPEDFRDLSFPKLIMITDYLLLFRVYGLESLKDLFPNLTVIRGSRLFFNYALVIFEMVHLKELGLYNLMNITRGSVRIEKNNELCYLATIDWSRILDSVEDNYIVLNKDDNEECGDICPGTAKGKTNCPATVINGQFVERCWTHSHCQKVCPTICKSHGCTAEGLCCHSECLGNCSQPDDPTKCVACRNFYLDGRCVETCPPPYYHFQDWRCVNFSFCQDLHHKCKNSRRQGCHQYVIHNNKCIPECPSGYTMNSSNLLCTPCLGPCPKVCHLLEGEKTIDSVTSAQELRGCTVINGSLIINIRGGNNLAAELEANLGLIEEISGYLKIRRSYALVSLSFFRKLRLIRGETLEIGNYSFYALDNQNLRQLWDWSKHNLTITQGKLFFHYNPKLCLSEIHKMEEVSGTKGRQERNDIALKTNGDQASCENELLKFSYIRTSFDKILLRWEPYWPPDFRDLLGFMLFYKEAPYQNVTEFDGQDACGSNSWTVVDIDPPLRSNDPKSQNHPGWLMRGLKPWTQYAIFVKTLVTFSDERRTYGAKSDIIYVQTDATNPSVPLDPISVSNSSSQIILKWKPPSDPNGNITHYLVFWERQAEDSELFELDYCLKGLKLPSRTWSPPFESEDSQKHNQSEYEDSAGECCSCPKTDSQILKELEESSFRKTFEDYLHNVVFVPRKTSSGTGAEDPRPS
- Sequence (P06213 763-1382 limits assumed): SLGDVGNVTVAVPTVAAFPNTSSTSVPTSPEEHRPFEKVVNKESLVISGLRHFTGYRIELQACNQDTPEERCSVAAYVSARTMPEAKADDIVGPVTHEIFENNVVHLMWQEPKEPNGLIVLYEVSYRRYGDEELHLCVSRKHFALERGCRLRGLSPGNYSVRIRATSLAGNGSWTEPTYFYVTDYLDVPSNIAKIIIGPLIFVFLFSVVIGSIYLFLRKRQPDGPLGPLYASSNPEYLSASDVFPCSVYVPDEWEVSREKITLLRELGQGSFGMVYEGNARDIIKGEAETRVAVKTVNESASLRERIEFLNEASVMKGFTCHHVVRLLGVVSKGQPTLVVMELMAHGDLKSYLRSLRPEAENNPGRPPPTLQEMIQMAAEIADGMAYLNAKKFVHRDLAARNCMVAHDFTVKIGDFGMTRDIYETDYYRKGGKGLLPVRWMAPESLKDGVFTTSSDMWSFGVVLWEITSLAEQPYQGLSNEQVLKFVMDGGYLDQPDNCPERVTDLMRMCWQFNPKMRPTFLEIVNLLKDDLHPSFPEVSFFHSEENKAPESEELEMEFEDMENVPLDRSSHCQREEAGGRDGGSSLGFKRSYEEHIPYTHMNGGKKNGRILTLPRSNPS
REPORTED_PROPERTY: IC50 (µM)
I only need the number, in µM, no unit after it.

// query Request the reported IC50 associated with CN1CCC(NC(=O)c2cnc(NCc3cc(Cl)ccc3Cl)nc2NC2CCCC2)CC1
// result 18.6

* * *

# IC50 per entry for Dual specificity protein kinase CLK1 (Homo sapiens, UniProt P49759)

{"columns": ["MOLECULE", "ASSAY_RESULT"],
 "data": [
  ["CN1CCC(NC(=O)c2cnc(Nc3cc(Cl)cc(Cl)c3)nc2N[C@@H]2COC[C@H]2O)CC1", "11.2 µM"]
]}

# evaluate next
// query Find IC50 (Dual specificity protein kinase CLK1 (Homo sapiens, UniProt P49759)) for the entry CN1CCC(NC(=O)c2cnc(Nc3cc(Cl)cc(Cl)c3)nc2NC2CCC(N(C)C)CC2)CC1 (configuration not stated)
// result 3.45 µM
